# ASSAY_EXPLANATION: Cytotoxicity against human HuH7 cells assessed as reduction in cell viability incubated for 48 hrs by alamar blue reagent based cell viability assay
# Parameters: species or system Huh-7
ASSAY_ENDPOINT: CC50 at 48 h

Consider the worked cases shown below.
# lookup: CC50 at 48 h of COc1cc(-c2cnc3c(N4C[C@@H](C)O[C@@H](C)C4)snc3c2)cc(OC)c1OC > 10 µM

# lookup: CC50 at 48 h of COc1cc(-c2cnc3c(N4C[C@@H](C)O[C@@H](C)C4)snc3c2)ccc1C(=O)O > 10 µM

# lookup: CC50 at 48 h of COc1cc(-c2cnc3c(N4C[C@@H](C)O[C@@H](C)C4)snc3c2)ccc1C(N)=O > 10 µM

# lookup: CC50 at 48 h of COc1cc(-c2cnc3c(N4C[C@@H](C)O[C@@H](C)C4)snc3c2)ccc1N > 25 µM

Now examine the next entry.
# lookup: CC50 at 48 h of COc1cc(-c2cnc3c(N4C[C@@H](C)O[C@@H](C)C4)snc3c2)ccc1C(=O)N1CCCC1 > 10 µM
